# assay: Drug uptake in rat brain at 10 mg/kg, po measured after 5 hrs
# Format: ADME, organism-based
# setup-conditions: read-out: Drug uptake
measurement-name: concentration at 5 h (µM)
// note: answer is a bare numeric in µM

input: I'd like to know its concentration at 5 h. The compound in question is C[C@@]1(c2ccc(F)cc2F)C[C@@H](c2cncnc2)SC(N)=N1
output: 12

###

# experimental-system: Beta-secretase 1 (Homo sapiens, UniProt P56817)
# Sequence (P56817 whole entry): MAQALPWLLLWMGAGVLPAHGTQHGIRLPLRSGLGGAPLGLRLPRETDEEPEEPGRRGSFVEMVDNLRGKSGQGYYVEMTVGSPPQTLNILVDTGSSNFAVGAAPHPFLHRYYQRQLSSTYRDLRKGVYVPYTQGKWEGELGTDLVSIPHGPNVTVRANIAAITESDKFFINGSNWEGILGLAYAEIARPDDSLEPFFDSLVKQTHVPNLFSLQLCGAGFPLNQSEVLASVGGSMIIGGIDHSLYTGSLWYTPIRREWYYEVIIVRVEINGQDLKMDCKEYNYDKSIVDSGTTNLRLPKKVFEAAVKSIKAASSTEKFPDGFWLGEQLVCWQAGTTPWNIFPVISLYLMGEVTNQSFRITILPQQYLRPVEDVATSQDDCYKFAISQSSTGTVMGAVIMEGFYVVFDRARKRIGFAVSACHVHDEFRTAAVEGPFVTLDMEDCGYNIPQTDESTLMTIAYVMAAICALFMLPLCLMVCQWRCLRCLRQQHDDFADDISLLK
# assay: Inhibition of BACE1 in human H4 cells expressing swedish mutant APP751 assessed as reduction in amyloid beta level measured after 19 hrs
Threshold check on IC50: strictly below 300 nM is met; on or above 300 nM is not met.

input: Does the reported IC50 of the following compound sit strictly below 300 nM? Cc1noc(-c2ccccc2)c1[C@@H]1C[C@@](C)(c2ccc(F)cc2F)N=C(N)S1
output: met

input: Hi there! Is IC50 for Cn1nccc1[C@@H]1C[C@@](C)(c2ccc(F)cc2F)N=C(N)S1 below 300 nM, do you know?
output: not met

input: Dear reviewer, please state whether Cc1onc(-c2cccnc2)c1[C@@H]1C[C@@](C)(c2ccc(F)cc2F)N=C(N)S1 has IC50 strictly beneath 300 nM.
output: met

input: Say whether its IC50 is strictly beneath 300 nM. Entry: Cc1noc(C)c1[C@@H]1C[C@@](C)(c2ccc(F)cc2F)N=C(N)S1
output: met

input: Threshold test, IC50 < 300 nM: Cc1noc(-c2ccc(F)cc2)c1[C@@H]1C[C@@](C)(c2ccc(F)cc2F)N=C(N)S1
output: not met

input: Below 300 nM on IC50? Entry Cc1noc(C)c1[C@@H]1C[C@@](C)(c2ccc(F)cc2)N=C(N)S1
output: not met

input: Is 300 nM strictly greater than the compound's reported IC50? compound: CCc1noc(CC)c1[C@@H]1C[C@@](C)(c2ccc(F)cc2F)N=C(N)S1
output: not met

input: Does the reported IC50 of Cc1onc(-c2ccccc2)c1[C@@H]1C[C@@](C)(c2ccc(F)cc2F)N=C(N)S1 stay below 300 nM?
output: met

input: State whether 300 nM exceeds IC50 recorded for Cc1onc(-c2ccc(F)cc2)c1[C@@H]1C[C@@](C)(c2ccc(F)cc2F)N=C(N)S1 .
output: not met

input: Does this compound meet the criterion IC50 < 300 nM? C[C@@]1(c2ccc(F)cc2F)C[C@@H](c2cncnc2)SC(N)=N1
output: not met

input: Criterion: IC50 strictly below 300 nM. Is it met by Cc1noc(C(F)F)c1[C@@H]1C[C@@](C)(c2ccc(F)cc2F)N=C(N)S1 ?
output: not met

input: Does Cc1noc(C)c1[C@@H]1C[C@@](C)(c2ccccc2)N=C(N)S1 have IC50 strictly under 300 nM?
output: not met

input: API: query returns whether the compound falls strictly under 300 nM in IC50. Query: CCc1noc(C)c1[C@@H]1C[C@@](C)(c2ccc(F)cc2F)N=C(N)S1
output: met

###

# experimental-system: Cytochrome P450 3A4 (Homo sapiens, UniProt P08684)
# Sequence (P08684 whole entry): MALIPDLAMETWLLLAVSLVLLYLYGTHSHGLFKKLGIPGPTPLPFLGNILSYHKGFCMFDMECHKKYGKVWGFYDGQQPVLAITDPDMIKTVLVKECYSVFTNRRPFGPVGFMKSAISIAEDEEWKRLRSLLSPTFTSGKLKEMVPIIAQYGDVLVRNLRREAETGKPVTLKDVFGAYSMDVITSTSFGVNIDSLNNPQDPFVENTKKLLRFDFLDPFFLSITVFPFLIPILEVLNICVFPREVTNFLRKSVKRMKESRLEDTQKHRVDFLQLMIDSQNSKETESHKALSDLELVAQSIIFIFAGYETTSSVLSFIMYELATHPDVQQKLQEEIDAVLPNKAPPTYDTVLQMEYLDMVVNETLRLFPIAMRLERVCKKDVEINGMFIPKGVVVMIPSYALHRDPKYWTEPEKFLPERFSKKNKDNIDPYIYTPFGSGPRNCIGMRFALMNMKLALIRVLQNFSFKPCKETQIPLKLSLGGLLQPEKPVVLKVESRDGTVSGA
# assay: Inhibition of recombinant human CYP3A4 preincubated for 10 mins followed by addition of BFC as substrate measured after 45 mins
pIC50: −log10 of the molar value.
measurement-name: pIC50

input: Observed pIC50 on Cytochrome P450 3A4 (Homo sapiens, UniProt P08684) for C[C@@]1(c2ccc(F)cc2F)C[C@@H](c2cncnc2)SC(N)=N1 , please.
output: < 4.70

###

# assay: Fraction unbound in mouse plasma
# Format: ADME, cell-free
measurement-name: fraction unbound
// no unit string in output, number only

input: Item C[C@@]1(c2ccc(F)cc2F)C[C@@H](c2cncnc2)SC(N)=N1 has what recorded fraction unbound?
output: 0.42

###

# assay: Plasma concentration in rat at 10 mg/kg, po measured after 5 hrs
# Assay type: ADME, organism-based
measurement-name: concentration at 5 h (µM)
All answers are understood in µM, so give the number only.

input: What value of concentration at 5 h has been recorded for this entry: C[C@@]1(c2ccc(F)cc2F)C[C@@H](c2cncnc2)SC(N)=N1
output: 6.6

###

What concentration at 3 h was measured for each of the following?
# assay: Drug uptake in mouse brain at 30 mg/kg, po measured after 3 hrs
# Format: ADME, organism-based
# setup-conditions: read-out: Drug uptake
Record the value in µM, omitting the unit from your answer.

input: Consider the molecule Cc1noc(C)c1[C@@H]1C[C@@](C)(c2ccc(F)cc2F)N=C(N)S1 and give its measured concentration at 3 h.
output: 3.6

input: Form field: reported concentration at 3 h of Cn1nccc1[C@@H]1C[C@@](C)(c2ccc(F)cc2F)N=C(N)S1
output: 4.3

input: Quick check: concentration at 3 h of C[C@@]1(c2ccc(F)cc2F)C[C@@H](c2cncnc2)SC(N)=N1 ?
output: 6.7

input: Fill in the blank: the reported concentration at 3 h of Cc1noc(C)c1[C@@H]1C[C@@](C)(c2cc(-c3cncnc3)c(F)cc2F)N=C(N)S1 is ____.
output: 0.58

###

# assay: Clearance in rat plasma at 2 mg/kg, iv administered as bolus or 10 mg/kg, po
# Assay type: ADME, organism-based
measurement-name: clearance (mL/min/kg)
Provide only the numeric value, understood in mL/min/kg.

input: What value of measured clearance is listed for C[C@@]1(c2ccc(F)cc2F)C[C@@H](c2cncnc2)SC(N)=N1 ?
output: 12

###

# assay: Plasma concentration in rat at 1 mg/kg, po measured after 5 hrs
# Type: ADME, organism-based
measurement-name: concentration at 5 h (nM)
Lab book: enter the figure in nM, no units written.

input: Which concentration at 5 h value belongs to C[C@@]1(c2ccc(F)cc2F)C[C@@H](c2cncnc2)SC(N)=N1 ?
output: 820

###

# assay: Fraction unbound in rat plasma
# Assay type: ADME, cell-free
measurement-name: fraction unbound

input: Which measured fraction unbound value corresponds to C[C@@]1(c2ccc(F)cc2F)C[C@@H](c2cncnc2)SC(N)=N1 ?
output: 0.48

###

# assay: Metabolic stability in mouse liver microsomes assessed as compound remaining at 0.5 uM measured after 10 mins
# Type: ADME, Microsome
# setup-conditions: read-out: Stability
measurement-name: remaining at 10 min, 0.5 µM (%)
Lab book: enter the figure in %, no units written.

input: Can you look up the measured remaining at 10 min, 0.5 µM of Cc1noc(C)c1[C@@H]1C[C@@](C)(c2ccc(F)cc2)N=C(N)S1 for me?
output: 90

input: # remaining at 10 min, 0.5 µM lookup, item Cc1noc(-c2ccc(F)cc2)c1[C@@H]1C[C@@](C)(c2ccc(F)cc2F)N=C(N)S1
output: 53

input: Look up remaining at 10 min, 0.5 µM for this molecule: Cc1noc(C)c1[C@@H]1C[C@@](C)(c2sccc2Cl)N=C(N)S1
output: 21

input: Look up remaining at 10 min, 0.5 µM: Cc1onc(-c2ccc(F)cc2)c1[C@@H]1C[C@@](C)(c2ccc(F)cc2F)N=C(N)S1
output: 23

input: What remaining at 10 min, 0.5 µM value was documented for this molecule, Cc1noc(C)c1[C@@H]1C[C@@](C)(c2ccccc2)N=C(N)S1 ?
output: 78

input: What value of measured remaining at 10 min, 0.5 µM is listed for Cc1noc(C(F)F)c1[C@@H]1C[C@@](C)(c2ccc(F)cc2F)N=C(N)S1 ?
output: 59

input: remaining at 10 min, 0.5 µM lookup needed for C[C@@]1(c2ccc(F)cc2F)C[C@@H](c2cncnc2)SC(N)=N1 , thanks.
output: 68

input: Entry Cc1noc(-c2ccccc2)c1[C@@H]1C[C@@](C)(c2ccc(F)cc2F)N=C(N)S1 has what remaining at 10 min, 0.5 µM?
output: 6

input: Fill blank: measured remaining at 10 min, 0.5 µM of the molecule CCc1noc(CC)c1[C@@H]1C[C@@](C)(c2ccc(F)cc2F)N=C(N)S1 is ____.
output: 59

input: Given the molecule Cc1noc(C)c1[C@@H]1C[C@@](C)(c2ccc(F)cc2F)N=C(N)S1 , what is its reported remaining at 10 min, 0.5 µM?
output: 72

###

# assay: Metabolic stability in human liver microsomes assessed as compound remaining at 0.5 uM measured after 10 mins
# Type: ADME, Microsome
# setup-conditions: read-out: Stability
# note: boundary value 40% maps to f; remaining at 10 min, 0.5 µM below it maps to t

input: Find out if reported remaining at 10 min, 0.5 µM for C[C@@]1(c2ccc(F)cc2F)C[C@@H](c2cncnc2)SC(N)=N1 is less than 40%
output: f

input: I'd appreciate it if you could check whether Cc1onc(-c2ccccc2)c1[C@@H]1C[C@@](C)(c2ccc(F)cc2F)N=C(N)S1 has remaining at 10 min, 0.5 µM smaller than 40%.
output: t

input: remaining at 10 min, 0.5 µM under 40%? Item: Cc1onc(-c2cccnc2)c1[C@@H]1C[C@@](C)(c2ccc(F)cc2F)N=C(N)S1
output: t

input: Regarding Cc1noc(-c2ccc(F)cc2)c1[C@@H]1C[C@@](C)(c2ccc(F)cc2F)N=C(N)S1 , kindly confirm whether its remaining at 10 min, 0.5 µM is beneath 40%.
output: f
